# EXPERIMENTAL_SYSTEM: HLA-A*03:01
# METHOD: IEDB peptide-MHC binding, purified MHC/direct/fluorescence; filed as Kd, often an IC50 or EC50 that approximates it; bounds were set here for any values at or beyond the usual limits of such assays
# EXPERIMENTAL_CONDITIONS: source organism: Escherichia coli
pKd: −log10 of the molar value.
This listing pairs sequences with measured pKd.
QUANTITY_NAME: pKd

chain_sequence=MPKPSLFVR result="≤ 4.70"
chain_sequence=SHDTIGPYY result="≤ 4.70"

---

# EXPERIMENTAL_SYSTEM: HLA-A*26:01
# METHOD: IEDB peptide-MHC binding, purified MHC/direct/fluorescence; filed as Kd, often an IC50 or EC50 that approximates it; bounds were set here for any values at or beyond the usual limits of such assays
# EXPERIMENTAL_CONDITIONS: source organism: Yersinia pestis Antiqua
QUANTITY_NAME: Kd

chain_sequence=RYQRMTGGY quantity_name=Kd result="≥ 20 µM"
